Target: UniProt:P15207
Sequence (P15207 1-902): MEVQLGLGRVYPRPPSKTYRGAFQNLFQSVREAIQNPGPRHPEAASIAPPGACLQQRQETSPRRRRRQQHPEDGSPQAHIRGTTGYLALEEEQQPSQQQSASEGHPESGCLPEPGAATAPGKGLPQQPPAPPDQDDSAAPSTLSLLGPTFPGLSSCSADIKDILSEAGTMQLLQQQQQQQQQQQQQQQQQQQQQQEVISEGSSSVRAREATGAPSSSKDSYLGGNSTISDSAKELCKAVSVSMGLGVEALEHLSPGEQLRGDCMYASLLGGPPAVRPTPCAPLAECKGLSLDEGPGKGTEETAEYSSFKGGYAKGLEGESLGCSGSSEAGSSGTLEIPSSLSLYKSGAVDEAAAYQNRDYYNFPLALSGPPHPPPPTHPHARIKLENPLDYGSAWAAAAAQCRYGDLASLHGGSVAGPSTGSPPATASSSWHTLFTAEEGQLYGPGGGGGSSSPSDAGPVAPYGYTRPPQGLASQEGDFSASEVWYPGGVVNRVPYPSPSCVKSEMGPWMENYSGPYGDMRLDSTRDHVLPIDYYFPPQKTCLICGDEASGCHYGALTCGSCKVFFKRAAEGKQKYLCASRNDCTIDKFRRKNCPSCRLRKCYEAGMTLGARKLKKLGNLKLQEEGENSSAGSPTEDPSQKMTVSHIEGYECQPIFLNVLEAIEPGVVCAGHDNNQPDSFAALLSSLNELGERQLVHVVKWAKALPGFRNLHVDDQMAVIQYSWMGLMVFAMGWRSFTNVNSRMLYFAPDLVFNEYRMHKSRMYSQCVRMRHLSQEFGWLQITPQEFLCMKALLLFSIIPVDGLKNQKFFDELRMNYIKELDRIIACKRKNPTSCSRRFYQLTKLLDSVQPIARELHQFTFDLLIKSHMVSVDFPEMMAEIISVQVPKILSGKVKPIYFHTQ
ENDPOINT NAME: Kd (nM)
Please respond with the number in nM and leave the unit unwritten.

Summary line: "C[C@@H]1CC2=CC(=O)CC[C@@H]2[C@H]2CC[C@@]3(C)[C@@H](CC[C@]3(C)O)[C@@H]21" , UniProt:P15207, reported Kd = 0.182

Every entry's value here was drawn from patent US7041844B2.
